# ASSAY_EXPLANATION: probe aNOTCH3 binding on compound microarray – biochemical, small-molecule microarray, 635/667 nm fluorescence, primary screen (AID 1120);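 further: probe is a biotin-tagged antibody raised against NOTCH3 rather than NOTCH3 protein; score merges spot fluorescence near 667 nm with spot signal to noise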
# MEASUREMENT_SETUP: higher = more signal
Rule: composite z-score under 0.2 gives no (0), otherwise yes (1).

For this compound, is measured composite z-score 0.2 or higher? "COC(=O)[C@@]1(Cc2ccc(F)cc2)[C@H]2c3cc(C(=O)N4CCCC4)n(CCc4ccccn4)c3C[C@H]2CN1C(=O)c1ccccc1"
no (0)

For this compound, is measured composite z-score 0.2 or higher? "O=C(NCCN1CCOCC1)[C@@H]1c2ccccc2C(=O)N(Cc2ccccc2C(F)(F)F)[C@H]1c1ccc(CO)cc1"
no (0)

For this compound, is measured composite z-score 0.2 or higher? CC(C)(C)OC(=O)CC[C@]1(C(=O)NCC(O)CO)N=C(c2ccc(OCCCO)cc2)O[C@H]1c1ccccc1N=[N+]=[N-] (some centres not stated)
no (0)

For this compound, is measured composite z-score 0.2 or higher? CN1C(=O)C2C(C1=O)C1C=C(c3ccc(CO)cc3)C2C(C2CC2)N1C (configuration not stated)
no (0)

For this compound, is measured composite z-score 0.2 or higher? "O=C(N1CCOCC1)[C@@]1(Cc2ccccc2)COC(c2ccc(OCCCO)cc2)=N1"
no (0)

For this compound, is measured composite z-score 0.2 or higher? "COC(=O)[C@@]1(Cc2ccc(F)cc2)[C@H]2c3cc(C(=O)N(C)C)n(C)c3C[C@H]2CN1C(=O)c1ccccc1"
yes (1)

For this compound, is measured composite z-score 0.2 or higher? "COCCOC(=O)N1C(=O)[C@@]2(c3cc(C#CCC(C(=O)OC)C(=O)OC)ccc31)[C@H](C(=O)Nc1nc3ccccc3s1)[C@H]1C(=O)O[C@H](c3ccccc3)[C@H](c3ccccc3)N1[C@@H]2c1ccc(O)cc1"
yes (1)

* * *

# System: Human papillomavirus type 1a E7 protein (residues 1-88)
# ASSAY_EXPLANATION: HPV1a E7 small-molecule binders, primary screen, biochemical, small-molecule microarray, residues 1-88, 635 nm (AID 1129)
# MEASUREMENT_SETUP: small-molecule microarray binding, fluorescence 635 nm; higher = more signal
Hi there, I'd appreciate the recorded composite z-score for every entry that follows.
Give a plain numeric answer without units written out.

Determine from records and report composite z-score for CC(C)(C)N1CC=CC23O[C@@H]4/C=C\CCCOC(=O)C4[C@H]2C(=O)N(CCCO)[C@@H]3C1=O (stereo partly drawn)
-0.849

Determine from records and report composite z-score for "CC(C)NC(=O)[C@@H]1c2ccccc2C(=O)N(Cc2ccc(OC(F)(F)F)cc2)[C@H]1c1ccc(CO)cc1"
1.18

Determine from records and report composite z-score for "COC(=O)[C@@]1(Cc2ccc(OC)cc2)[C@H]2c3cc(C(=O)N4CCCC4)n(Cc4ccc(C(F)(F)F)nc4)c3C[C@H]2CN1C(=O)c1ccccc1"
1.22

Determine from records and report composite z-score for "O=C(NCc1ccc(F)cc1)[C@H]1C[C@H]2C(=O)N3CCC[C@H]3C(=O)N2[C@H]1c1ccc(O)cc1"
-0.825

Determine from records and report composite z-score for "COCCOC(=O)N1C(=O)[C@@]2(c3cc(C#Cc4ccc(OC)cc4)ccc31)[C@H](c1ccc(OCCO)cc1)N1[C@H](c3ccccc3)[C@H](c3ccccc3)OC(=O)[C@H]1[C@@H]2C(=O)NC[C@H](O)c1ccccc1"
1.17

Determine from records and report composite z-score for "COC(=O)[C@@]1(Cc2ccc(F)cc2)[C@H]2c3cc(C(=O)N4CCCC4)n(Cc4cc(F)cc5c4OCOC5)c3C[C@H]2CN1C(=O)c1ccccc1"
-0.0867

Determine from records and report composite z-score for CN1C(=O)C2C(C3CC3)C=C3CN(Cc4cccc(Cl)c4)[C@@H]([C@@H](O)Cc4ccccc4)C3C2C1=O (stereo partly drawn)
1.18

Determine from records and report composite z-score for CC(=O)c1ccc(C(O)C2C=CC3C(=O)N(c4ccccc4)C(=O)C3N2Nc2ccc(C(C)C)cc2)cc1 (stereo not drawn)
1.23

Determine from records and report composite z-score for COc1ccc(C(O)C2C=CC3C(=O)N(C)C(=O)C3N2N(c2ccccc2)c2ccccc2)cc1 (stereo not drawn)
0.906

Determine from records and report composite z-score for "COC(=O)[C@@]1(Cc2ccc(F)cc2)[C@H]2c3cc(C(=O)N(C)C)n(CCc4ccc(O)c(O)c4)c3C[C@H]2CN1C(=O)c1ccccc1"
1.18

Determine from records and report composite z-score for "CC(C)=C1C(=O)C(c2ccccc2)=C2CN3C(=O)N(CCc4ccccc4)C(=O)[C@]3(C)[C@H]21"
0.871

Determine from records and report composite z-score for C=CCC(OC(C)=O)[C@@H]1[C@@H](N(Cc2cccc3ccccc23)C(=O)c2ccc(-c3ccccc3)cc2)c2cc(OCCCO)ccc2N1C(=O)Cc1ccc2ccccc2c1 (stereo partly drawn)
0.0951

Determine from records and report composite z-score for "O=C1[C@H]2C=C(I)[C@H](C[C@@H]2c2ccccc2)[C@@]12CO2"
0.0555

Determine from records and report composite z-score for "C=CCN1C(=O)[C@]2(O[C@H](CCn3cc([C@H](O)c4ccccc4)nn3)[C@@H]([Si](C)(C)c3ccc(OC)cc3)[C@@H]2C)c2cc(NC(=O)c3ccc(OC)cc3)ccc21"
0.499

Determine from records and report composite z-score for "CN(C)CCCCNC(=O)[C@H]1C[C@H]2C(=O)N3CCC[C@H]3C(=O)N2[C@H]1c1cccc(OCCO)c1"
0.74

Determine from records and report composite z-score for "C=C(COC)/C(=C/C[C@@H](OC(C)=O)c1ccccc1OCCO)c1cnc2ccccc2c1"
1.06

Determine from records and report composite z-score for "COCCCNC(=O)[C@@]1(CCC(=O)OC(C)(C)C)COC(c2ccc(OCCCO)cc2)=N1"
1.27

Determine from records and report composite z-score for "CN(C)CCCNC(=O)[C@@]1(C)c2ccccc2C(=O)N(Cc2ccc(OC(F)(F)F)cc2)[C@H]1c1ccc(CO)cc1"
0.365

Determine from records and report composite z-score for "COC(=O)C(CC#Cc1ccc2c(c1)[C@]1(C(=O)N2)[C@H](C(=O)NC[C@H](O)c2ccccc2)[C@H]2C(=O)O[C@H](c3ccccc3)[C@H](c3ccccc3)N2[C@@H]1c1ccccc1OCCO)C(=O)OC"
1.23

Determine from records and report composite z-score for "O=C1O[C@@H](c2ccccc2)[C@@H](c2ccccc2)N2[C@@H](c3ccc(OCCO)cc3)[C@]3(C(=O)Nc4ccc(C#CC5(O)CCCCCC5)cc43)[C@@H](C(=O)Nc3nc4ccccc4s3)[C@H]12"
1.24

Determine from records and report composite z-score for "COc1ccc([Si](C)(C)[C@H]2[C@H](CC(=O)N3Cc4ccccc4C[C@H]3CO)O[C@@]3(C(=O)N(C)c4c(Br)cc(C)cc43)[C@@H]2C)cc1"
0.777

Determine from records and report composite z-score for "COc1ccc([Si](C)(C)[C@H]2[C@H](CC(=O)N3Cc4ccccc4C[C@H]3CO)O[C@@]3(C(=O)N(C)c4ccccc43)[C@@H]2C)cc1"
1.19

Determine from records and report composite z-score for COc1ccc(NN2C(C(O)c3ccc(I)cc3)C=CC3C(=O)N(C4CCCCC4)C(=O)C32)cc1 (stereo not drawn)
1.23

Determine from records and report composite z-score for O=C1OCCC=C[C@H]2OC34C=CCN(c5ccc6ccccc6c5)C(=O)[C@H]3N(CCO)C(=O)[C@@H]4C12 (stereo partly drawn)
-0.803

Determine from records and report composite z-score for OCCCC1=CC(c2ccc(CN3CCCC3)cc2)N(Cc2cccc(OC(F)(F)F)c2)CC1 (stereo not drawn)
-0.377

Determine from records and report composite z-score for "COc1ccc([Si](C)(C)[C@H]2[C@H](CC(=O)N3Cc4ccccc4C[C@H]3CO)O[C@@]3(C(=O)N(c4ccccc4)c4ccccc43)[C@@H]2C)cc1"
1.19

Determine from records and report composite z-score for "C=C(COC)C(=O)CC[C@@H](OC(=O)c1ccccc1-c1ccccc1C(=O)O)c1ccc(OCCO)cc1"
-0.0905

Determine from records and report composite z-score for O=C1C2C=CC(C(O)c3c(F)cccc3Cl)N(Nc3ccc([N+](=O)[O-])cc3)C2C(=O)N1c1ccccc1 (stereo not drawn)
1.22

* * *

# Test system: Plasmodium falciparum Sir2 (PF13_0152, Sir2A)
# ASSAY_EXPLANATION: Plasmodium falciparum Sir2A binding compounds – biochemical, small-molecule microarray, 635 nm fluorescence, primary screen (AID 1098);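 further: score merges spot fluorescence intensity with its signal-to-noise ratio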
# MEASUREMENT_SETUP: fluorescence 635 nm, higher = more signal
Hi there, I'd appreciate the recorded composite z-score for every entry that follows.
Give a plain numeric answer without units written out.

// output composite z-score; input "[N-]=[N+]=NCc1ccccc1[C@@H]1OC(c2ccc(OCCCO)cc2)=N[C@]1(Cc1ccccc1N=[N+]=[N-])C(=O)O" ; system Plasmodium falciparum Sir2 (PF13_0152, Sir2A)
1.45

// output composite z-score; input "C[C@]1(C(=O)O)c2ccccc2C(=O)N(Cc2cc(F)cc(C(F)(F)F)c2)[C@H]1c1ccc(CO)cc1" ; system Plasmodium falciparum Sir2 (PF13_0152, Sir2A)
1.64

// output composite z-score; input "COc1ccc(C(=O)Nc2cccc(CN3C(=O)[C@@]4(O[C@@H](CC(=O)N5CCC[C@H]5CO)[C@H]([Si](C)(C)c5ccc(OC)cc5)[C@H]4C)c4ccccc43)c2)cc1" ; system Plasmodium falciparum Sir2 (PF13_0152, Sir2A)
1.21

// output composite z-score; input COc1ccc(C(O)C2C=CC3C(=O)N(C)C(=O)C3N2N(c2ccccc2)c2ccccc2)cc1 (configuration not stated) ; system Plasmodium falciparum Sir2 (PF13_0152, Sir2A)
1.59

// output composite z-score; input "COC(=O)[C@@]1(Cc2ccccc2)N=C(c2ccc(OCCCO)cc2)O[C@H]1c1ccccc1CN=[N+]=[N-]" ; system Plasmodium falciparum Sir2 (PF13_0152, Sir2A)
1.61

// output composite z-score; input C=C(C)[C@@H]1CC=C(C(O)C2C=CC3C(=O)N(c4ccccc4)C(=O)C3N2Nc2ccc([N+](=O)[O-])cc2)CC1 (some centres not stated) ; system Plasmodium falciparum Sir2 (PF13_0152, Sir2A)
-0.0606

// output composite z-score; input CN1C(=O)C2C(C3CC3)C=C3CN(Cc4cccc(Cl)c4)[C@@H]([C@@H](O)Cc4ccccc4)C3C2C1=O (some centres not stated) ; system Plasmodium falciparum Sir2 (PF13_0152, Sir2A)
1.11

Hello, the source for this data is PubChem BioAssay, in case you need it.
